B1: CDC25A (parent)
chain: KKFRTKSRTWAGEKSKREMYSRLK

# Variants of: B1
# Test: protein stability index of a GFP-peptide fusion (GPS, HEK-293T) (PSI 1-6); higher = more stable;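 note: lentivirally expressed fusions sorted by FACS into six bins by GFP to DsRed ratio, PSI derived from sequencing read proportions per bin multiplied by bin number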
# Test Context: c terminus: a fixed tail appended

>  <Variant Description>
K14V

>  <protein stability index>
2.41

$$$$
>  <Variant Description>
L23Q

>  <protein stability index>
3.74

$$$$
>  <Variant Description>
E18W

>  <protein stability index>
4.23

$$$$
>  <Variant Description>
R4M

>  <protein stability index>
3.46

$$$$
>  <Variant Description>
K16L

>  <protein stability index>
3.16

$$$$
>  <Variant Description>
K14C

>  <protein stability index>
2.54

$$$$
>  <Variant Description>
T5Y

>  <protein stability index>
3.24

$$$$
>  <Variant Description>
E18T

>  <protein stability index>
2.19

$$$$
>  <Variant Description>
T5N

>  <protein stability index>
3.56

$$$$
>  <Variant Description>
S15F

>  <protein stability index>
3.34

$$$$
>  <Variant Description>
E18P

>  <protein stability index>
2.17

$$$$
>  <Variant Description>
F3C

>  <protein stability index>
3.22

$$$$
>  <Variant Description>
Y20S

>  <protein stability index>
4.69

$$$$
>  <Variant Description>
R8I

>  <protein stability index>
3.39

$$$$
>  <Variant Description>
K14G

>  <protein stability index>
4.36

$$$$
>  <Variant Description>
T5P

>  <protein stability index>
2.39

$$$$
>  <Variant Description>
R4K

>  <protein stability index>
3.18

$$$$
>  <Variant Description>
M19R

>  <protein stability index>
3.44

$$$$

Source: the supplement of paper PMC10567573
